# Test system: LoVo
# protocol-text: Antiproliferative activity against human LoVo cells after 96 hrs by MTT assay
# Format: functional
endpoint: GI50 (µM)

Example results:
chem-smiles	GI50 (µM)
Cn1c2c(c3ccccc31)/C(=N/OCC1CCCCC1)CCNC2=O	20.5
Cn1c2c(c3ccccc31)/C(=N/O)CCNC2=O	51.3
O=C1NCC/C(=N\OCc2ccccc2)c2c1[nH]c1ccccc21	24.3
O=C1NCCC(=O)c2c1[nH]c1ccccc21	36.9
Cn1c2c(c3ccccc31)C(=O)CCNC2=O	36.8

1 = O=C1NCC/C(=N\O)c2c1[nH]c1ccc(Br)cc21
2 = O=C1NCC/C(=N\O)c2c1[nH]c1ccccc21
Prompt: Among 1 and 2 , which shows a numerically higher GI50 result? Respond with the label that goes with your answer.
Response: 2

====

# target-entity: Cyclin-dependent kinase 2/cyclin A (Homo sapiens)
# protocol-text: Inhibition of CDK2/cyclin A
endpoint: pIC50
# pIC50 = -log10(concentration in molar units)

Prompt: Please look up its pIC50: NC1=NC(=O)/C(=C2\CCNC(=O)c3[nH]c(Br)cc32)N1 [HYMENIALDISINE]
Response: 7.15

====

# target-entity: Cyclin-dependent kinase 2/cyclin E1 (Homo sapiens)
# protocol-text: Inhibition of CDK2/cyclin E
# Type: protein-complex assay
endpoint: pIC50
The value called pIC50 is obtained by taking minus log10 of the concentration in mol/L.

Prompt: pIC50 lookup needed for NC1=NC(=O)/C(=C2\CCNC(=O)c3[nH]c(Br)cc32)N1 , thanks.
Response: 7.40

====

# target-entity: Cyclin-dependent kinase 2/cyclin A (Homo sapiens) (UniProt P24941+P20248+P78396)
# protocol-text: Inhibition of recombinant CDK2/cyclin A expressed in Sf21 cells using histone H1 as substrate at 10 uM after 10 mins by scintillation counting in presence of [32P]ATP
endpoint: inhibition (%)

Please review the following examples before continuing.
chem-smiles	inhibition [%]
O=C1NCC/C(=N\O)c2c1[nH]c1ccc(Br)cc21	45
O=C1NCC/C(=N\OCc2ccccc2)c2c1[nH]c(Br)c2Br	0
Cn1c(Br)c(Br)c2c1C(=O)NCC/C2=N\OCc1ccccc1	22

A = Cn1c(Br)c(Br)c2c1C(=O)NCC/C2=N\OCC1CCCCC1
B = O=C1NCC/C(=N\OCc2ccccc2)c2c1[nH]c1ccccc21
Prompt: Hey, which is lower on measured inhibition, A or B ? Give the label under which the chosen entry appears.
Response: A
(A: 13%, B: 32%)

====

# System: Jurkat
# protocol-text: Inhibition of PMA- and PHA-stimulated IL2 production in human Jurkat T cells incubated for 30 mins prior to PMA- and PHA-stimulation by competitive enzyme immunoassay
# Assay type: functional, cell-based
endpoint: pIC50
The quantity pIC50 is defined as the negative base-10 logarithm of the molar concentration.

Prompt: What measured pIC50 is associated with Nc1nc(C2=C3C(=Nc4ccccc43)C(=O)NCC2)c(O)[nH]1 on Jurkat?
Response: 5.46

====

# Tested on: PC-3
# protocol-text: Antiproliferative activity against human PC3 cells after 96 hrs by MTT assay
# Format: functional
# protocol-conditions: PC-3, 96 h
GI50 listing for selected molecules.

molecule	endpoint	test-result
Cn1c2c(c3ccccc31)/C(=N/O)CCNC2=O	GI50	> 100 µM

Prompt: Please look up its GI50: O=C1NCC/C(=N\OCc2ccccc2)c2c1[nH]c1ccccc21
Response: 23.4 µM

Prompt: I have this molecule here, O=C1NCC/C(=N\O)c2c1[nH]c1ccc(Br)cc21 , and I need its recorded GI50.
Response: 46.2 µM

Prompt: GI50 lookup needed for O=C1NCCC(=O)c2c1[nH]c1ccccc21 , thanks.
Response: > 100 µM

Data origin, for the record: ChEMBL document CHEMBL2086357
